assay: protease stability score; higher = more stable; yeast display proteolysis, trypsin and chymotrypsin;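 further: relative to predicted unfolded state with 0 unfolded-like and 1 meaning tenfold more protease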
Recorded protease stability score by entry
API note: the answer field is a bare number with no unit suffix.

Worked examples follow.
| Sequence content | protease stability score |
| --- | --- |
| SEEDEVSERLAREYLHIWKTGDEDRLAKLLDPHTRFIYVIGDKELELIGRDKFAEFLRHLWEELGVNHFDVHDFKVYGEKVQLDTTEEYGDKNFRMHIDIVVIDGKVKFIRIKER | 1.33 |
| TEEEHWALHLLERILHHMLTGNESFIKHLFDPDTRWEVNGVENIGMERHSKLFLHMRIESIEIRSIHVRIVGEYIHIDVEIDIRGIVNGQRVEYHKKIHVIISKVNGRWHIKHYHESDE | 1.22 |
| DENHRHASELIEIFRHALATGDWETLYRLMDPHTRVLINGKDLHGMEEHLTFLLEEHERLGIENIDVRVRIDHREVQGDKIIIHITIHLNFNGREIYFESRIIVSKFNGRWSIESLEIR | 1.42 |
| EEDREWVERIIRHYREAELTGDEDRMKELVDPNTRFHIDGVVYHGMDEWTRYVRELRMRSRTRVHQVRVIDGRIEADFEYEIHIEINGVQIDRRQEVILIFKKVNGKWIVERVIVV | 1.93 |

Given item DEDEKSVKYAFTMYMQNITTGDEDTLKKYLDPNVKLHFNGVNLHGMESLNKWIREIRHRVRHVHFKDVRVIDGVLIVHIEWEVREDIDGQETEDRYIVRMIVLKIDGKWILRESQIL , the value recorded as its protease stability score is 1.74

Given item SEDERVAEELLRLLSEYLKTGDEQIVTELLDPHTKMIIDGQTHIGMDVWQMLRKHIRVKNSDVHDVKFVDGRMHLDMRVHGHVNGVDVTRRLHVHTHKINGRWHIKEIHIE , the value recorded as its protease stability score is 1.46

Given item HDLEKLVKFWYELWLRLLLTGDEEIFSHLADPNARLEVDGVEFVGREQVLKDLKRRMEEMRLTSMIITHVDWQGEKNRTEGITHGRINGVDITSETHLVLVIVNGRIRSIRIEIR , the value recorded as its protease stability score is 1.54

Given item SEHDRLAHEWMRVFLHSIWTGDEDTILKMIDPHMRLDIDGVTFHGRDDVREWFHHHRERVDHIKDVDIKDVRIFDGKAETDRIVHVQVDGKEVDEEVLVILIVIDGRVTSIIIEKR , the value recorded as its protease stability score is 1.12

Given item DEEEAHTRHILELFKHNYHTGDEDLFRRLLDPNVRLHIDGVNIHGREEVVEVLVKLAHEIRVELRVKHIRIINGVAEVDIELTIHQGDKHESRKIHLFILKVNGRWRVESIQWR , the value recorded as its protease stability score is 1.42

Given item DDEDEEVKLIIEEELHLARTGDFERLLELHDPDVRIIFDGREWHGREALRWLYRHLGIDRIDLHFEDVRVINGRVEMDVTENINGRKIKSRIIARKYDGRWINEQVDIK , the value recorded as its protease stability score is 2.28

Given item DEEEEDMKNMLRIWEETVETGDEHTKERFADPNMRLVVNGVSSHGMESFKTVIKWEHERYDHLKKIEIHRLEFFDGRVIIDGTFTGNIDGVEYKRRIILIMVKVDGRWLLEEVIIH , the value recorded as its protease stability score is 1.39
